Target: CDK4/6
Experiment: cell-based or functional assay
Details: scale: relative value
No end group written: not given here. *: point of attachment. aminohexane = linker joining biotin to the N-terminal residue; Biotin = O=C1N[C@H]2[C@H](CS[C@H]2CCCCC(=O)*)N1
measurement.name: CDK4/6 Reactivity
Number, no unit, nothing else.

Data request: GET /values?readout=CDK4/6 Reactivity&item= {Biotin-aminohexane}-GMPWSPNPWARGGGG [Polypeptide 10]
Data returned: 15

Data request: Proceed to {Biotin-aminohexane}-GMAWSPNPWWRGGGG [Polypeptide 4]
Data returned: 5

Data request: Proceed to {Biotin-aminohexane}-GMPYSPNPWWRGGGG [Polypeptide 14]
Data returned: 5
